target.entity: midkine (Homo sapiens)
Construct: made in house; host or cells: yeast
Sequence (P21741 23-143 limits assumed): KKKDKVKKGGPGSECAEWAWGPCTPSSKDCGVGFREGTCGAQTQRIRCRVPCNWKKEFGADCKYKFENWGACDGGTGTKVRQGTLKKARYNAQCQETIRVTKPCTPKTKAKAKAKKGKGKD
assay.remarks: Midkine activity: midkine-dependent migration of UMR106 cells (Chemotaxicell)
Format: cell-based
run.parameters: peptide 1 mg/ml in lower chamber, dissolved in H2O, filter coated with 20 μg/ml midkine, 4 h, OD 590 nm, control without material = 100, duplicate
Ends that are not written are not given here.
value.kind: Migration activity (%)
Give the value in % but do not write % after it.

Here are 6 substances together with their reported answers.
>>> meas_value("GTGTKVRQGTL [GT11, midkine-derived peptide … from β-sheet of C-terminal half]")
156
>>> meas_value("AMETNLV [AM7]")
99.5
>>> meas_value("TFSQRIEG [TF8]")
105
>>> meas_value("MQSTIRE [MQ7]")
107
>>> meas_value("YKFENWGACDGG [YK12, midkine-derived peptide … from β-sheet of C-terminal half]")
44.0
>>> meas_value("KQNQVKFGS [KQ9]")
107

(Q) # get_value(readout='Migration activity (%)', item= PAKLRNPCT [PA9] )
(A) 69.4

(Q) # get_value(readout='Migration activity (%)', item= IENPRGSKDIKKNKN [IE15] )
(A) 113

(Q) # get_value(readout='Migration activity (%)', item= QETIRVTKPC [QE10, midkine-derived peptide … from β-sheet of C-terminal half] )
(A) 99.5

====

target.entity: midkine (Homo sapiens, UniProt P21741)
Construct: made in house; host or cells: yeast
Sequence (P21741 23-143 limits assumed): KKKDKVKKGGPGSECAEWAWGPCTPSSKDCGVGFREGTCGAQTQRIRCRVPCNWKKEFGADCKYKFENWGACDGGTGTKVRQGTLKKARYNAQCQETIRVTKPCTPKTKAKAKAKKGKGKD
assay.remarks: Binding activity to midkine by surface plasmon assay (BIACORE 3000)
run.parameters: BIACORE 3000, midkine immobilised on CM5 chip; peptides 5 μg/ml in 10 mM HEPES-NaOH pH 7.4, 0.15 M NaCl, 0.0005% Tween 20; 25°C; read-out: Binding constant to midkine
Ends that are not written are not given here.
The entries below come with measured pKd values attached.
FYI, pKd means -log10 of a concentration in mol per litre.

Here are 5 substances together with their reported answers.
>>> meas_value("PAKLRNPCT [PA9]")
6.35
>>> meas_value("AMETNLV [AM7]")
6.02
>>> meas_value("TFSQRIEG [TF8]")
6.85
>>> meas_value("IENPRGSKDIKKNKN [IE15]")
6.52
>>> meas_value("MQSTIRE [MQ7]")
6.64

Moving on to the next substance.
(Q) # get_value(readout='pKd', item= KQNQVKFGS [KQ9] )
(A) 6.70
